Reference for the values: ChEMBL document CHEMBL4007505

target: Sodium-dependent dopamine transporter (Homo sapiens); assay: Enhancing of [3H]mazindol binding to recombinant human DAT expressed in HEK293 cell membranes preincubated for 10 mins followed by radioligand addition measured after 90 mins by micro beta scintillation counting analysis; details: read-out: EC50
measured.endpoint: EC50 (nM)

> print(dat)
                         compound.structure  reported.measurement
1  CNc1nc(C#Cc2ccc(Br)s2)nc2c1ncn2[C@H]1[C@H](O)[C@H](O)[C@]2(C(=O)OC)C[C@H]12                   308
2  CNC(=O)[C@@]12C[C@@H]1[C@@H](n1cnc3c(NC)nc(C#Cc4ccc(Cl)s4)cc31)[C@H](O)[C@@H]2O                   550
3  CNc1nc(C#Cc2ccc(Cl)s2)nc2c1ncn2[C@@H]1O[C@H](C(=O)OC)[C@@H](O)[C@H]1O                   860
4  CNc1nc(C#Cc2ccc(Cl)s2)nc2c1ncn2[C@H]1[C@H](O)[C@H](O)[C@]2(C(=O)OC)C[C@H]12                   124
5  CNC(=O)[C@@]12C[C@@H]1[C@@H](n1cnc3c(NC)nc(C#Cc4ccc(F)c(F)c4)nc31)[C@H](O)[C@@H]2O                   128

====

target: Sodium-dependent dopamine transporter (Homo sapiens, UniProt Q01959); experiment: Enhancing of [3H]mazindol binding to recombinant human DAT expressed in HEK293 cell membranes preincubated for 10 mins followed by radioligand addition measured after 90 mins by micro beta scintillation counting analysis; design: concentration or dose not given beside the values
Sequence (Q01959 whole entry): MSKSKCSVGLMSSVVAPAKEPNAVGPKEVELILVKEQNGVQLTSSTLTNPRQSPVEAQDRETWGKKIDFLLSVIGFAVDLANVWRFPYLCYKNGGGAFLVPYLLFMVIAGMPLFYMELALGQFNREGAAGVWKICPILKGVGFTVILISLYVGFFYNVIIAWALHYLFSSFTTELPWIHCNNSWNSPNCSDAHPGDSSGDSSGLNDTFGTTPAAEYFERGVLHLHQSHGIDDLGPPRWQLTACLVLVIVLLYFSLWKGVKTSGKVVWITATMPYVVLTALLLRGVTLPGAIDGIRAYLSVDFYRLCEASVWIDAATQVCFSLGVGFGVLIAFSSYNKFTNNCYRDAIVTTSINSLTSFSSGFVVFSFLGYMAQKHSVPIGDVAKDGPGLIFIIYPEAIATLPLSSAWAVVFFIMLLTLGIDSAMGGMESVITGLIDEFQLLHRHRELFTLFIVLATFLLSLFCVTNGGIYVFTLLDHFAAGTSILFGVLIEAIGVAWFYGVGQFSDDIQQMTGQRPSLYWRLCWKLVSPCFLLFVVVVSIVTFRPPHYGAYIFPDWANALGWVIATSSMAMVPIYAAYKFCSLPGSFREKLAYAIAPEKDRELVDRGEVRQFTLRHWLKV
measured.endpoint: Activity (%)

> print(dat)
                         compound.structure  reported.measurement
1  CCCOC(=O)[C@@]12C[C@@H]1[C@@H](n1cnc3c(NC)nc(C#Cc4ccc(Cl)s4)nc31)[C@H](O)[C@@H]2O                   347
2  CNC(=O)[C@@]12C[C@@H]1[C@@H](n1cnc3c(NC)nc(C#Cc4ccc(Cl)s4)nc31)[C@H](O)[C@@H]2O                   403
3  CNC(=O)[C@@]12C[C@@H]1[C@@H](n1cnc3c(NC)nc(C#Cc4ccc(Br)s4)nc31)[C@H](O)[C@@H]2O                   369
4  CNc1nc(C#Cc2ccc(Cl)s2)nc2c1ncn2[C@H]1[C@H](O)[C@H](O)[C@]2(C(=O)OC)C[C@H]12                   540
5  CCOC(=O)[C@@]12C[C@@H]1[C@@H](n1cnc3c(NC)nc(C#Cc4ccc(Cl)s4)nc31)[C@H](O)[C@@H]2O                   455
6  CNc1nc(C#Cc2ccc(Br)s2)nc2c1ncn2[C@H]1[C@H](O)[C@H](O)[C@]2(C(=O)OC)C[C@H]12                   520
7  CNC(=O)[C@@]12C[C@@H]1[C@@H](n1cnc3c(NC)nc(C#Cc4ccc(Cl)s4)cc31)[C@H](O)[C@@H]2O                   405
8  CNC(=O)[C@@]12C[C@@H]1[C@@H](n1cnc3c(NC)nc(C#Cc4ccc(F)c(F)c4)nc31)[C@H](O)[C@@H]2O                   438
9  CNc1nc(C#Cc2ccc(Cl)s2)nc2c1ncn2[C@@H]1O[C@H](C(=O)OC)[C@@H](O)[C@H]1O                   269
